System: HEK293FT dCK*-IKZF1
Experiment: relative growth recovery (pomalidomide 10 uM = 100%, DMSO = 0%); higher = more growth rescue (IKZF1 fusion degradation)
Details: compound concentration: 5 uM; AraC concentration: 0.3 uM; overnight pretreatment + 4 days AraC
Structures can show the parent of a compound that is named as a salt.
test.readout: relative growth recovery
Your answer should be a number followed by the unit of measure.

Observe how each entry below is paired with its result.
[
  {
    "molecule": "Cc1cc(Nc2ncc(Cl)c(Nc3ccccc3S(=O)(=O)C(C)C)n2)c(OC(C)C)cc1C1CCN(CCOCCOCCNC(=O)CNc2cccc3c2C(=O)N(C2CCC(=O)NC2=O)C3=O)CC1 (stereo not drawn)",
    "relative growth recovery": "62.7%"
  },
  {
    "molecule": "CN1CCCC(CC2c3ccccc3Sc3ccccc32)C1 (stereo not drawn) [metixene]",
    "relative growth recovery": "1.64%"
  },
  {
    "molecule": "CCCCCCCCCCCCCCCC[N+](C)(C)CCN(Cc1ccc(OC)cc1)c1ncccn1 [thonzonium bromide]",
    "relative growth recovery": "-10.3%"
  },
  {
    "molecule": "O=C(Nc1ccc2[nH]ccc2c1)c1ccccc1",
    "relative growth recovery": "-0.01%"
  },
  {
    "molecule": "Cc1cc(N2CCCCC2)nc2ccccc12",
    "relative growth recovery": "-1.01%"
  }
]

Query (molecule): COc1ccccc1Oc1c(NS(=O)(=O)c2ccc(C)cn2)nc(-c2ccncc2)nc1OC [Avosentan] ; field requested: relative growth recovery
-1.19%

Please report the recorded relative growth recovery for COc1cccc2c(O)c3c(O)c4c(c(O)c3c(O)c12)=C(O[C@H]1C[C@H](N)[C@@H](O)[C@H](C)O1)C[C@](O)(C(=O)CO)C=4 [Epirubicin HCl] .
-13.6%

Which relative growth recovery value belongs to OCCCNc1cc(-c2ccnc(Nc3cccc(Cl)c3)n2)ccn1 ?
-12.8%
